- Tested on: MS2 coat protein
- assayName: apparent KD of MS2 coat protein; designed switch direction (-1 OFF switch, 1 ON switch): 1; higher = weaker reporter binding
- appliedConditions: input ligand: microRNA oligo, concentration not stated
Assign Yes whenever apparent KD of MS2 coat protein does not fall below 70 nM; assign No whenever it does.

Q) Answer whether apparent KD of MS2 coat protein of GGAAUAUUUACAGGAUAUCAUUUGUAAAUUCGAUGAGAAGGGUAGAUGUCUUACACGACUUGUUACAUGAGGAUCACCCAUGUU [SameState NG1 #8] (Eterna round: R96, puzzle: Same State NG 1) is greater than or equal to 70 nM.
A) No

Q) Answer whether apparent KD of MS2 coat protein of GGUACAUGAGGAUCACCCAUGUCAAAGGCACCGUGCAGACUGGAGGAUAUCACAGCAGAAAGCUGUGAGAAGGCCGUGUAAGCG [Eternabot solution 17] (Eterna round: R96, puzzle: Same State NG 3) is greater than or equal to 70 nM.
A) No

Q) Answer whether apparent KD of MS2 coat protein of GGUAUGGACACAGGAUAUGCUUACGAAACGUAAGCAGAAGGGUGAACAUGAGGAUCACCCAUGUACGUACCAGGGCGUGAGCCC [JL SSNG1 1.76] (Eterna round: R96, puzzle: Same State NG 1) is greater than or equal to 70 nM.
A) Yes

Q) Answer whether apparent KD of MS2 coat protein of AUAUGAGGAGCAGGAUAUGCGGAGAAGAAAGAAGCAGAAGGGCUCAUGGGACGACAUGAGGAUCACCCAUGUACUCCGCGAUGA [AK SSNG1-V2-5] (Eterna round: R96, puzzle: Same State NG 1) is greater than or equal to 70 nM.
A) Yes

Value source: the supplement of paper PMC9170038
